# Assayed System: furin, P09958;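 note: purified furin at 1:10 enzyme:substrate in 50 mM HEPES pH 7.5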
# Sequence (P09958 whole entry): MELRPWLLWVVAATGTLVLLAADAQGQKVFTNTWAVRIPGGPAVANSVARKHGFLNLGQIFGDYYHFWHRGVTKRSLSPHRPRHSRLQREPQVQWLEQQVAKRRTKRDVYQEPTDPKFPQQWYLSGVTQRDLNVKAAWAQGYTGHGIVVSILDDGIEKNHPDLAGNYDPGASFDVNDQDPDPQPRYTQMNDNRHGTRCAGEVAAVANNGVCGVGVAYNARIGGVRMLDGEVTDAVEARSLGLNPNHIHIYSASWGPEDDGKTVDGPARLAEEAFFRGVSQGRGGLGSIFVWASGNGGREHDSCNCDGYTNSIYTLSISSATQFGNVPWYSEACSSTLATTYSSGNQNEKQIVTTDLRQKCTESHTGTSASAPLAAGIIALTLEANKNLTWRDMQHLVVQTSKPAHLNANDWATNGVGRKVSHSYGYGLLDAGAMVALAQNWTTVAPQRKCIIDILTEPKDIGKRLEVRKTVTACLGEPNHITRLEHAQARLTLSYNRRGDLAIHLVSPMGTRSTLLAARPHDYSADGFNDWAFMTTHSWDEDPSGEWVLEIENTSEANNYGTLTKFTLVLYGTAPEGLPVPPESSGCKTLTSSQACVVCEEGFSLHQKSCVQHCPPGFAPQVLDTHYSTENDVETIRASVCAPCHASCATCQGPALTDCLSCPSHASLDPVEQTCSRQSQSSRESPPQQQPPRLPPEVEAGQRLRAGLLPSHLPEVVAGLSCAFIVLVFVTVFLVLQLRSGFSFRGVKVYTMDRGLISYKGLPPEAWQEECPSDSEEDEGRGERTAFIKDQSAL
# Procedure Details: furin cleavage Z-score vs untreated control; higher = more cleavage, active = 3.5 or more, inactive = 1 or less, 8 variable residues between constant flanks
# Conditions: 7.5 min
The list shows a part of the results. How many sequences the whole screen found active is unknown.
Known furin cleavage Z-score of a selection of sequences
Measurement Type: furin cleavage Z-score

Chain	Readout Number
CANSSRSKKPAGNASASA [FS-947]	-0.794
CAERPCHRPSAGNASASA [HC2333]	1.21
CARRRREGGAAGNASASA [FS-2373]	-0.0204
CAEVVTSTNVAGNASASA [HC2241]	0.759

The reported measurements were obtained from the supplement of paper PMC3545927.
